test: Pharmacokinetics following a single oral dose in rats; format: in vivo; settings: rat, male Sprague-Dawley rats, nominal 10 mg/kg in 10% DMSO/10% cremophor/80% SWFI, plasma, actual dose 7.6 mg/kg (Example 115), 8.4 mg/kg (Example 85)
measuredProperty: Cmax (ng/mL)

[a] C[C@@H](CNC(=O)c1cn(Cc2ccc(Cn3ccccc3=O)cc2)nc1N)Oc1cccc(Cl)c1 [Example 115]
[b] Cc1cccn(Cc2ccc(Cn3cc(C(=O)NCCOc4cccc(Cl)c4)c(N)n3)cc2)c1=O [Example 85]
Task item: Higher Cmax between a and b ? The response must carry the label of the picked entry.
Reply: a
(a: 538 ng/mL, b: 228 ng/mL)

* * *

target: Human plasma kallikrein (Homo sapiens (Human), UniProt P03952); assay: Determination of the IC50 for plasma kallikrein; conditions: read-out: IC50 (human PKal)
Sequence (P03952 391-638): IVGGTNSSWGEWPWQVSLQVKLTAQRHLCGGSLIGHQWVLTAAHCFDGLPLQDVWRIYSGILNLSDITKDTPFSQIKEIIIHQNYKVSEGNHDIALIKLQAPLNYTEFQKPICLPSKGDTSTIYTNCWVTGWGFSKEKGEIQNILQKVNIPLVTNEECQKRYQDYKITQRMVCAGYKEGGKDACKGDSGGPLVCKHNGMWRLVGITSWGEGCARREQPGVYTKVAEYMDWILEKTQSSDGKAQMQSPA
Sequence (P03952 20-390 partner): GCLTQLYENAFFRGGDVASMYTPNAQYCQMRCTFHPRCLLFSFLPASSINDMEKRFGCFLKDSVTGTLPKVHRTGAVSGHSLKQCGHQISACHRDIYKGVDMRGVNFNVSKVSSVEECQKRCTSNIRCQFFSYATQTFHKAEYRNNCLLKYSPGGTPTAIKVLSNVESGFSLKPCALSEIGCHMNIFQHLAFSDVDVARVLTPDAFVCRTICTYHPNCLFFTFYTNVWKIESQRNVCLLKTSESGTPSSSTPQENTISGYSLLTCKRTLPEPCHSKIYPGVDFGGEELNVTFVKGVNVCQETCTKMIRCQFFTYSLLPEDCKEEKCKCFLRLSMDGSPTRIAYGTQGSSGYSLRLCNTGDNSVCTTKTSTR
pIC50: −log10 of the molar value.
measuredProperty: pIC50

{"columns": ["compound", "measuredProperty", "testResult"],
 "data": [
  ["Nc1nn(Cc2ccc(-n3ccccc3=O)cc2)cc1C(=O)NCCOc1cccc(Cl)c1 [Example 52]", "pIC50", 6.47],
  ["O=C(NCCOc1cccc(Cl)c1)c1cn(Cc2ccc(Cn3ccccc3=O)cc2)nc1C1CC1 [Example 5]", "pIC50", 7.16],
  ["CN(C(=O)CNC(=O)c1cn(Cc2ccc(Cn3ccccc3=O)cc2)nc1N)c1cccc(Cl)c1 [Example 40]", "pIC50", 7.90],
  ["Cc1cc(C(=O)NCCOc2cccc(Cl)c2)c(C)n1Cc1csc(-c2ccccc2)n1 [Example 48]", "pIC50", 5.18],
  ["CNc1nn(Cc2ccc(Cn3ccccc3=O)cc2)cc1C(=O)NCCOc1cccc(Cl)c1 [Example 37]", "pIC50", 7.73],
  ["C[C@@H](CNC(=O)c1cn(Cc2ccc(Cn3ccccc3=O)cc2)nc1N)Oc1cccc(Cl)c1 [Example 115]", "pIC50", 8.25]
]}

[1] Nc1nn(Cc2ccc(Oc3ccccc3)cc2)cc1C(=O)NCCOc1cccc(Cl)c1 [Example 71]
[2] N#Cc1ccc(Cl)cc1OCCNC(=O)c1cn(Cc2ccc(Cn3ccccc3=O)cc2)nc1N [Example 32]
Task item: Given the listed items, does 1 or 2 have the lesser reported pIC50? The response must carry the label of the picked entry.
Reply: 1
(1: 5.68, 2: 8.00)

* * *

target: Human KLK1 (Homo sapiens (Human))
Sequence (P06870 25-262): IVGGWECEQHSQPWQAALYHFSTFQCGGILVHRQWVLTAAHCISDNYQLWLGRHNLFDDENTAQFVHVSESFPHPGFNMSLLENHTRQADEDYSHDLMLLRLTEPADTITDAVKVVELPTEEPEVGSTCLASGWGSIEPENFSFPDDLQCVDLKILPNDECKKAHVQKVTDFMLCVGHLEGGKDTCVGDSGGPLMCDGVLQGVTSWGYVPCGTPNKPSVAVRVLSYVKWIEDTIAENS
measuredProperty: IC50

{"columns": ["smilesString", "IC50"],
 "data": [
  ["Nc1c(C(=O)NCCOc2cccc(Cl)c2)cnn1Cc1ccc(Cn2ccccc2=O)cc1", "> 10 µM"],
  ["Nc1nn(Cc2ccc(Cn3ccccc3=O)cc2)cc1C(=O)NCCCc1cccc(Cl)c1", "> 40 µM"],
  ["Nc1nn(Cc2cccc(C(=O)O)c2)cc1C(=O)NCCOc1cccc(Cl)c1", "> 40 µM"],
  ["Nc1nn(Cc2ccc(C(=O)N3CCCC3)cc2)cc1C(=O)NCCOc1cccc(Cl)c1", "> 40 µM"],
  ["C[C@H](COc1cccc(Cl)c1)NC(=O)c1cn(Cc2ccc(Cn3ccccc3=O)cc2)nc1N", "> 40 µM"]
]}

Bench note, Human KLK1 (Homo sapiens (Human)): `Nc1nn(Cc2ccc(Cn3ccccc3=O)cc2)cc1C(=O)NCCNc1cc(Cl)ccn1` , IC50 reads > 40 µM

Bench note, Human KLK1 (Homo sapiens (Human)): `Nc1nn(Cc2ccc(Cn3cccnc3=O)cc2)cc1C(=O)NCCOc1cccc(Cl)c1` , IC50 reads > 40 µM

Bench note, Human KLK1 (Homo sapiens (Human)): `Nc1nn(Cc2ccc(Cn3ccccc3=O)cc2)cc1C(=O)NCC(=O)Nc1ccccc1Cl` , IC50 reads > 10 µM
